# experimentDescription: Inhibition of p85 SH2 domain binding to biotinylated phosphopeptide
readout: IC50

Input: Look up IC50: `CC[C@H](C)[C@H](NC(=O)[C@@H](N)Cc1ccc(OP(=O)(OC(C)=O)OC(C)=O)cc1)C(=O)N[C@@H](CC(=O)NCCCc1cccc2ccccc12)C(=O)O`
Output: > 10 µM

====

# measuredTarget: Growth factor receptor-bound protein 2 (Homo sapiens)
# Sequence (P62993 whole entry, the tested form may be a part): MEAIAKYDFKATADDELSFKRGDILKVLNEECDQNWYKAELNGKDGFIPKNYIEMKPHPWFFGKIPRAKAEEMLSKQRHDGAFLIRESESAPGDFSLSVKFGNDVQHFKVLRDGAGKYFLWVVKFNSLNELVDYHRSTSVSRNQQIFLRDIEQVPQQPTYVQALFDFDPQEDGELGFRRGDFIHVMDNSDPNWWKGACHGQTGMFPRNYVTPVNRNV
# experimentDescription: Inhibition of Grb2-SH2 domain binding to phospho-EGF receptor intracellular C-terminal domain
# Format: biochemical
pIC50: −log10 of the molar value.
Tick label 1 if pIC50 is 6 or greater. Tick label 0 if pIC50 is less than 6.

Input: pIC50 >= 6 for CCCCC(CC)CNC(=O)C[C@H](NC(=O)[C@@H](NC(=O)[C@@H](N)Cc1ccc(OP(=O)(OC(C)=O)OC(C)=O)cc1)[C@@H](C)CC)C(=O)O (some centres not stated) ?
Output: label 0

Input: pIC50 >= 6 for `CC[C@H](C)[C@H](NC(=O)[C@@H](N)Cc1ccc(OP(=O)(OC(C)=O)OC(C)=O)cc1)C(=O)N[C@@H](CC(N)=O)C(=O)O` ?
Output: label 0

Input: pIC50 >= 6 for `CC[C@H](C)[C@H](NC(=O)[C@@H](N)Cc1ccc(OP(=O)(OC(C)=O)OC(C)=O)cc1)C(=O)N[C@@H](CC(=O)NCC(C)C)C(=O)O` ?
Output: label 0

Input: pIC50 >= 6 for `CC[C@H](C)[C@H](NC(=O)[C@@H](N)Cc1ccc(OP(=O)(OC(C)=O)OC(C)=O)cc1)C(=O)N[C@@H](CC(=O)NCCCc1cccc2ccccc12)C(=O)O` ?
Output: label 1

Input: pIC50 >= 6 for `CC[C@H](C)[C@H](NC(=O)[C@@H](N)Cc1ccc(OP(=O)(OC(C)=O)OC(C)=O)cc1)C(=O)N[C@@H](CC(=O)NCCC(C)C)C(=O)O` ?
Output: label 0

Input: pIC50 >= 6 for `CC[C@H](C)[C@H](NC(=O)[C@@H](N)Cc1ccc(OP(=O)(OC(C)=O)OC(C)=O)cc1)C(=O)N[C@@H](CC(=O)NCCCc1ccccc1)C(=O)O` ?
Output: label 0

====

# measuredTarget: Tyrosine-protein kinase Lck (Homo sapiens)
# Sequence (P06239 whole entry): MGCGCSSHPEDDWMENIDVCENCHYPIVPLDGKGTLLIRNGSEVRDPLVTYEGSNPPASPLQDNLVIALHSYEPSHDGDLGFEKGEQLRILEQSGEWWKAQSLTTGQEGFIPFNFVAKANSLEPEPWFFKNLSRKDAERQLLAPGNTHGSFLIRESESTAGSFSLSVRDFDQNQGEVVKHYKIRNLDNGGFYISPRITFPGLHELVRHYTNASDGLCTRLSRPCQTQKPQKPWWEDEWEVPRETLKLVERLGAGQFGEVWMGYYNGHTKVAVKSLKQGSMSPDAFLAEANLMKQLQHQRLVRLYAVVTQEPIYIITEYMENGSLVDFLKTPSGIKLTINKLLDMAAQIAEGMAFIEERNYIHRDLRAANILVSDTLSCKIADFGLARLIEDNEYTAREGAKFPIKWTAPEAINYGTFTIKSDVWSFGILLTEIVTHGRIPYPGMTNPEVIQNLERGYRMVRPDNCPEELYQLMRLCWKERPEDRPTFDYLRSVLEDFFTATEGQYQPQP
pIC50: −log10 of the molar value.
readout: pIC50

Input: What pIC50 appears in the records for this compound with Tyrosine-protein kinase Lck (Homo sapiens)? `CC[C@H](C)[C@H](NC(=O)[C@@H](N)Cc1ccc(OP(=O)(OC(C)=O)OC(C)=O)cc1)C(=O)N[C@@H](CC(=O)NCCCc1cccc2ccccc12)C(=O)O`
Output: < 5.00

====

# measuredTarget: Growth factor receptor-bound protein 2 (Homo sapiens)
# experimentDescription: Inhibition of Grb2 SH2 domain binding to biotinylated phosphopeptide
readout: IC50 (nM)
Give the quantity in nM, number only.

Input: Look up IC50: `CC[C@H](C)[C@H](NC(=O)[C@@H](N)Cc1ccc(OP(=O)(OC(C)=O)OC(C)=O)cc1)C(=O)N[C@@H](CC(=O)NCCCc1cccc2ccccc12)C(=O)O`
Output: 580
